Recorded log P (acid) by entry
experiment: log P determination by LC-MS in the acidic range; format: physicochemical; settings: LC-MS in the acidic range
Endpoint label: log P (acid)

compound="O=C(Nc1cc(C(F)(F)F)n(Cc2ncccn2)n1)c1cccnc1 [Compound I-1-196]" measured_number=1.46
compound="Cc1cc(NC(=O)c2cncc(Br)c2)nn1Cc1ccccc1F [Compound I-1-101]" measured_number=2.69
compound="Cn1nc(NC(=O)c2cccnc2)c(Cl)c1OC(F)F [Compound I-1-275]" measured_number=1.19

* * *

Assay: log P determination by LC-MS in the acidic range
Assay type: physicochemical
Conditions: Table 3; HPLC on reversed-phase column (C 18), 55° C., acidic range (pH 2.7 or pH 2.3)
Text: The LC-MS determination in the acidic range is effected at pH 2.7 using 0.1% aqueous formic acid and acetonitrile (contains 0.1% formic acid) as eluents, linear gradient from 10% acetonitrile to 95% acetonitrile. Alternatively, the determination is effected in the acidic range at pH 2.3 using 0.1% aqueous phosphoric acid and acetonitrile as eluents; linear gradient from 10% acetonitrile to 95% acetonitrile.
Would you please tag the item fulfilled when its log P (acid) is 2 or above, and not fulfilled when it is below?

compound="O=C(Nc1nn(-c2ccc(Cl)cc2Cl)nc1C(F)(F)F)c1cccnc1 [Compound I-3-8]" assigned_class=fulfilled
compound="CC(C)n1ncc(NC(=O)c2cccnc2)n1 [Compound I-3-10]" assigned_class="not fulfilled"
compound="Cc1nn(-c2ccccc2)nc1NC(=O)c1cccnc1 [Compound I-3-11]" assigned_class="not fulfilled"
compound="Cc1nn(-c2ccc(Cl)cc2Cl)nc1NC(=O)c1cccnc1 [Compound I-3-19]" assigned_class=fulfilled
compound="Cn1ncc(NC(=O)c2cccnc2)n1 [Compound I-3-2]" assigned_class="not fulfilled"
compound="O=C(Nc1nn(-c2ccc(Cl)cc2)nc1C(F)(F)F)c1cccnc1 [Compound I-3-20]" assigned_class=fulfilled
compound="Cc1nn(-c2cc(Cl)ccc2Cl)nc1NC(=O)c1cccnc1 [Compound I-3-22]" assigned_class=fulfilled
compound="O=C(Nc1nn(-c2ncccc2Cl)nc1Cl)c1cccnc1 [Compound I-3-21]" assigned_class="not fulfilled"
compound="Cc1nn(-c2cccc(C(F)(F)F)c2)nc1NC(=O)c1cccnc1 [Compound I-3-18]" assigned_class=fulfilled
compound="O=C(Nc1cnn(-c2ncccc2Cl)n1)c1cccnc1 [Compound I-3-16]" assigned_class="not fulfilled"
compound="O=C(Nc1nn(-c2ccccc2)nc1C(F)(F)F)c1cccnc1 [Compound I-3-12]" assigned_class=fulfilled

* * *

assay: log P determination by LC-MS in the acidic range; assay type: physicochemical; details: LC-MS in the acidic range
Endpoint label: log P (acid)

compound="Cc1cc(NC(=O)c2cccnc2)nn1CC1COc2ccccc2O1 (centres unmarked) [Compound I-1-157]" measured_number=1.99
compound="Cc1cc(N(C(=O)c2cccnc2)C(=O)c2cccc(Cl)c2)nn1C(=O)c1cccc(Cl)c1 [Compound I-1-22]" measured_number=3.98
compound="Cc1cc(N(Cc2ccc3nsnc3c2)C(=O)c2cccnc2)nn1Cc1ccc2nsnc2c1 [Compound I-1-343]" measured_number=2.57
compound="Cc1cc(NC(=O)c2cccnc2)nn1Cc1ccc(Cl)nc1 [Compound I-1-21]" measured_number=1.42
compound="O=C(Nc1nn(Cc2ncccn2)cc1Cl)c1cccnc1 [Compound I-1-137]" measured_number=0.58
compound="CCc1cc(NC(=O)c2cccnc2)nn1Cc1ccc(Cl)nc1 [Compound I-1-58]" measured_number=1.67
compound="Cc1cc(NC(=O)c2cccnc2)nn1C(=O)Oc1ccccc1 [Compound I-1-233]" measured_number=2
compound="Cc1cc(Cn2nc(NC(=O)c3cccnc3)cc2C)no1 [Compound I-1-283]" measured_number=1.19
compound="CCOC(=O)CN(C)C(=O)Cn1nc(NC(=O)c2cncc(F)c2)cc1C [Compound I-1-61]" measured_number=1.35
compound="O=C(Nc1ccn(Cc2cc(F)ccc2F)n1)c1cccnc1 [Compound I-1-90]" measured_number=1.65
compound="C#CCn1nc(NC(=O)c2cccnc2)cc1C1CC1 [Compound I-1-43]" measured_number=1.41

All figures here come from patent US20160106102A1.
